Provenance of the data: ChEMBL document CHEMBL2417368

Assay: Clearance in NCR nude mouse plasma at 5 mg/kg, iv
Assay type: ADME, organism-based
Design: dose 5 mg/kg, route intravenous
measurement type: clearance (mL/min/kg)
Answer format: numeric, mL/min/kg implied, no suffix.

INPUT: // returns reported clearance for input O=C(NCc1ccc(S(=O)(=O)c2cc(F)cc(F)c2)cc1)c1ccc2nccn2c1
OUTPUT: 52.4

====

Test: AUC (infinity) in NCR nude mouse at 10 mg/kg, po
Assay type: ADME, organism-based
Set-up: time infinity, dose 10 mg/kg, route oral
Conditions: plasma
measurement type: AUC(0-inf) (µM·h)
Field: numeric (µM·h). Do not append units.

INPUT: Using the record for O=C(NCc1ccc(S(=O)(=O)c2cc(F)cc(F)c2)cc1)c1ccc2nccn2c1 , report its AUC(0-inf).
OUTPUT: 3.06

====

Experiment: in vitro
Conditions: dog, MDCK
Mark y for reported Papp A→B at 10 µM of 8 ×10⁻⁶ cm/s or greater; mark n for anything smaller.

INPUT: Answer whether Papp A→B at 10 µM of O=C(NCc1ccc(S(=O)(=O)c2cccc(C(F)(F)F)c2)cc1)c1cc2cnccc2[nH]1 is greater than or equal to 8 ×10⁻⁶ cm/s.
OUTPUT: n

INPUT: Hello, I need to know if O=C(/C=C/c1cccnc1)NCCCCC1CCN(C(=O)c2ccccc2)CC1 [DAPORINAD] has measured Papp A→B at 10 µM not below 8 ×10⁻⁶ cm/s. Thanks!
OUTPUT: y

INPUT: Would you say O=C(NCc1ccc(S(=O)(=O)c2ccc(N3CCOCC3)nc2)cc1)c1cnc2nccn2c1 shows Papp A→B at 10 µM at minimum 8 ×10⁻⁶ cm/s?
OUTPUT: n

INPUT: Has O=C(NCc1ccc(S(=O)(=O)c2cc(F)cc(F)c2)cc1)c1ccc2nccn2c1 a recorded Papp A→B at 10 µM greater than or equal to 8 ×10⁻⁶ cm/s?
OUTPUT: y

INPUT: Assess whether reported Papp A→B at 10 µM for O=C(NCc1ccc(S(=O)(=O)c2ccc(N3CCOCC3)nc2)cc1)c1cc2ccncc2o1 sits at 8 ×10⁻⁶ cm/s or higher.
OUTPUT: y

INPUT: Answer whether Papp A→B at 10 µM of O=C(NCc1ccc(S(=O)(=O)c2cc(F)cc(F)c2)cc1)c1cnc2nccn2c1 is greater than or equal to 8 ×10⁻⁶ cm/s.
OUTPUT: n

INPUT: Determine whether this compound has Papp A→B at 10 µM no lower than 8 ×10⁻⁶ cm/s: O=C(NCc1ccc(S(=O)(=O)c2cc(F)cc(F)c2)cc1)c1cc2cnccc2[nH]1
OUTPUT: y

INPUT: Determine whether this compound has Papp A→B at 10 µM no lower than 8 ×10⁻⁶ cm/s: O=C(NCc1ccc(S(=O)(=O)c2ccc(N3CCOCC3)nc2)cc1)c1ccc2nccn2c1
OUTPUT: n

INPUT: Is Papp A→B at 10 µM at least 8 ×10⁻⁶ cm/s? Consider O=C(NCc1ccc(S(=O)(=O)c2cccc(C(F)(F)F)c2)cc1)c1cc2ccncc2o1
OUTPUT: y

INPUT: Test whether the compound O=C(NCc1ccc(S(=O)(=O)c2ccc(N3CCOCC3)nc2)cc1)c1cc2cnccc2[nH]1 records Papp A→B at 10 µM of 8 ×10⁻⁶ cm/s or higher.
OUTPUT: n

INPUT: Is Papp A→B at 10 µM at least 8 ×10⁻⁶ cm/s? Consider N#CN=C(NCCCCCCOc1ccc(Cl)cc1)Nc1ccncc1 [CHS-828]
OUTPUT: y
